Where do the numbers come from? From ChEMBL document CHEMBL1125930.

# assay-procedure: Partition ratio obtained from HPLC analysis.
# Type: ADME
Classify by measured k': 1 if it is equal to or exceeds 0.6, 0 if it is smaller.

INSERT INTO assay_data (molecule, qualitative_label) VALUES
  ('CC(=O)COC1=C(O)C(C2COC(C)(C)O2)OC1=O (configuration not stated)', 0),
  ('CCCCCCCCC(=O)COC1=C(O)C(=O)OC1C(O)CO (configuration not stated)', 0),
  ('CCCCCCCCCCCCCCCCC(=O)COC1=C(O)OC(C(O)CO)C1=O (configuration not stated)', 0),
  ('CCCCCCCCCCCCCCCCCCOC1=C(O)[C@@H](C(O)CO)OC1=O (some centres not stated)', 1),
  ('CCCCCCCCCCCCOC1=C(O)OC(C(O)CO)C1=O (configuration not stated)', 1),
  ('CCCCCCCCCCCCCCCCC(=O)COC1=C(O)C(=O)OC1C(O)CO (configuration not stated)', 1),
  ('O=C1O[C@H]([C@@H](O)CO)C(O)=C1O [ASCORBIC ACID]', 0),
  ('CCCCCCCCCCCCCCCCCCOC1=C(O)C(=O)OC1C(O)CO (configuration not stated)', 1),
  ('CCCCCCCCCCCCCCCCOC1=C(O)C(=O)OC1C(O)CO (configuration not stated)', 1),
  ('CCCCCCCCCCOC1=C(O)C(=O)OC1C(O)CO (configuration not stated)', 1),
  ('CCCCCCCCOC1=C(O)OC(C(O)CO)C1=O (configuration not stated)', 0),
  ('CCCCCCC(=O)COC1=C(O)C(=O)OC1C(O)CO (configuration not stated)', 0);

###

# Species: Rattus norvegicus
# assay-procedure: The compound was tested for the inhibition of lipid peroxidation in rat liver microsomes induced by [Fe2+] at a concentration of 10E-5 M.
# Format: functional
Known inhibition of a selection of compounds
endpoint-label: inhibition (%)

INSERT INTO results (compound, endpoint_label, recorded_number) VALUES
  ('CCCCCCCCCCOC1=C(O)C(=O)OC1C(O)CO (centres undefined)', 'inhibition', 44),
  ('CCCCCCCCCCCCCCOC1=C(O)C(=O)OC1C(O)CO (centres undefined)', 'inhibition', 30),
  ('CCCCCCCCCCCCCCC(=O)COC1=C(O)C(=O)OC1C(O)CO (centres undefined)', 'inhibition', 33),
  ('CCCCCCCCCCOC(=O)COC1=C(O)C(=O)OC1C(O)CO (centres undefined)', 'inhibition', 31),
  ('CCCCCCCCCCCCCCCCCCOC1=C(O)C(=O)OC1C(O)CO (centres undefined)', 'inhibition', 7),
  ('CCCCCCCCCCC(=O)COC1=C(O)C(=O)OC1C(O)CO (centres undefined)', 'inhibition', 44),
  ('CCCCCCCCCCCCC(=O)COC1=C(O)C(=O)OC1C(O)CO (centres undefined)', 'inhibition', 30),
  ('CCCCCCCCCCCCOC1=C(O)C(=O)OC1C(O)CO (centres undefined)', 'inhibition', 34),
  ('CCCCCCCCCCCCCCCCCCOC1=C(O)[C@@H](C(O)CO)OC1=O (some centres undefined)', 'inhibition', 29),
  ('CCCCCCCCCCCCCCCCOC1=C(O)C(=O)OC1C(O)CO (centres undefined)', 'inhibition', 21),
  ('CCCCCCC(=O)COC1=C(O)C(=O)OC1C(O)CO (centres undefined)', 'inhibition', 20),
  ('CCCCCCCCOC1=C(O)C(=O)OC1C(O)CO (centres undefined)', 'inhibition', 9),
  ('CCCCCCCCCCCCCCCCC(=O)COC1=C(O)C(=O)OC1C(O)CO (centres undefined)', 'inhibition', 28),
  ('CCCCCCCCC(=O)COC1=C(O)C(=O)OC1C(O)CO (centres undefined)', 'inhibition', 33);
